Tested on: jimpy (Plp1 jimpy) mouse iPSC-derived oligodendrocyte progenitor cells
Procedure Summary: total cell number (DAPI+ nuclei) relative to DMSO vehicle control (SDs above negative control mean); higher = more surviving cells
Settings: 10 µM; 3 days
Over roughly 2,600 compounds, “total cell number (DAPI+ nuclei) relative to DMSO vehicle control” has its median near -1.4; the lowest 2% begin near -23. Shown is part of a subset that was picked to be rich in the lowest values.
Readout Name: total cell number
Reply briefly: the number, and no unit.

Compound	total cell number
CC[C@@]1(O)C(=O)OCc2c1cc1n(c2=O)Cc2cc3ccccc3nc2-1 [Camptothecin]	-22.6
CC1C2Cc3ccc(O)cc3C1(C)CCN2CC1CC1 (single isomer, unassigned; (+)) [(+)-Cyclazocine]	-1.89
CC[C@@]1(O)C(=O)OCc2c1cc1n(c2=O)Cc2cc3ccccc3nc2-1 [(S)-(+)-Camptothecin]	-9.49

-- ask Could you share which total cell number value was measured for CC(N)C(O)c1ccc(O)c(O)c1 (single isomer, unassigned; (-)) [(-)-alpha-Methylnorepinephrine] ?
-- reply -0.161

###

Test system: jimpy (Plp1 jimpy) mouse iPSC-derived oligodendrocyte progenitor cells
Procedure Summary: total cell number (DAPI+ nuclei) relative to DMSO vehicle control (SDs above negative control mean); higher = more surviving cells
Settings: 10 µM; 3 days
Counter-ions that a name gives are not always drawn. Over roughly 2,600 compounds, “total cell number (DAPI+ nuclei) relative to DMSO vehicle control” has its median near -1.4; the lowest 2% begin near -23. Shown is part of a subset that was picked to be rich in the lowest values.
Readout Name: total cell number
Reply briefly: the number, and no unit.

Molecule	total cell number
Cc1cc([C@@H]2CCCN2C)on1 [ABT-418 hydrochloride]	-4.48

-- ask Could you share which total cell number value was measured for O=c1ccc2[nH]cc(C3=CCNCC3)c2[nH]1 ?
-- reply 0.673

-- ask Same again, this time with CO[C@H]1CC[C@@H](O[C@H]2C[C@H]([C@]3(C)CC[C@]4(C[C@H](O)[C@@H](C)[C@@H]([C@@H](C)/C=C(\C)C(=O)[C@H](C)C[C@H](C)C(=O)O)O4)O3)O[C@]3(O[C@@H]([C@H]4O[C@@](O)(CO)[C@H](C)C[C@@H]4C)C[C@@H]3C)[C@@H]2C)O[C@@H]1C [Nanchangmycin]
-- reply -27.5

-- ask Same again, this time with CC1=NN=C(c2ccc(N)cc2)c2cc3c(cc2C1)OCO3
-- reply -0.785

-- ask Same again, this time with CC(C)C1CNC(C(=O)O)C1CC(=O)O (stereo unspecified) [Dihydrokainic acid]
-- reply -0.564

-- ask Same again, this time with CCCCC/C=C\C/C=C\C/C=C\C/C=C\CCCC(=O)NCc1ccc(O)c(OC)c1 [Arvanil]
-- reply -8.09

Entry source: the supplement of paper PMC6135742
